What follows is a record of log10 IC50 for UniProt Q92731.
Sequence (Q92731 whole entry): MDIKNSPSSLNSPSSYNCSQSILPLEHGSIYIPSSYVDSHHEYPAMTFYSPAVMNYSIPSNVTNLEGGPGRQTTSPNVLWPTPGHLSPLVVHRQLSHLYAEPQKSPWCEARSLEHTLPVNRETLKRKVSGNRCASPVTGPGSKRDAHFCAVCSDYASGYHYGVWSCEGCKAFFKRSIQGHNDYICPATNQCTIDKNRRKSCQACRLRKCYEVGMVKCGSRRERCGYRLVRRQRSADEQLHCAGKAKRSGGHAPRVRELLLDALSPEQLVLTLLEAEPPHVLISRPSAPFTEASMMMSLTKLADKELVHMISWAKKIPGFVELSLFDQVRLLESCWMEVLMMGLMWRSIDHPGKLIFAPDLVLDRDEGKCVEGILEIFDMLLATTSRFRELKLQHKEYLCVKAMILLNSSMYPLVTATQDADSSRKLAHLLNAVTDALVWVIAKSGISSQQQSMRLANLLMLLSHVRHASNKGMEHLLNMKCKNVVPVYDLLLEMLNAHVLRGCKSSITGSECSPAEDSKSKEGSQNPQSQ
Measurement kind: log10 IC50 (log10 of the value in nM)

# Compound, log10 IC50
rows = [
    ("CC(=O)C1(C(C)=O)Cc2ccc([C@]3(O)CC[C@H]4[C@@H]5CCc6cc(O)ccc6[C@H]5CC[C@@]43C)cc2C1", 2.40),
    ("CCOC(=O)C1(C(=O)OCC)Cc2ccc([C@]3(O)CC[C@H]4[C@@H]5CCc6cc(O)ccc6[C@H]5CC[C@@]43C)cc2C1", 3.03),
    ("CCOC(=O)C1(C(C)=O)Cc2ccc([C@]3(O)CC[C@H]4[C@@H]5CCc6cc(O)ccc6[C@H]5CC[C@@]43C)cc2C1 (stereo not given in full)", 2.50),
    ("Cc1ccc(S(=O)(=O)N2Cc3ccc([C@]4(O)CC[C@H]5[C@@H]6CCc7cc(O)ccc7[C@H]6CC[C@@]54C)cc3C2)cc1", 2.70),
    ("CCOC(=O)C1(C#N)Cc2ccc([C@]3(O)CC[C@H]4[C@@H]5CCc6cc(O)ccc6[C@H]5CC[C@@]43C)cc2C1 (stereo not given in full)", 1.73),
]
